# measured.target: T1, Unizyme-tagged human IL-13 (33-146) (human, UniProt P35225 33-146, ALEXA FLUOR 488 or ALEXA FLUOR 647 succinimidyl ester label in the staining and flow cytometry experiments)
# T1 construct: range 33-146; The SPR section says only 'Human IL-13'; also called huIL-13; IL-13 antigen; not shown: Unizyme tag
# T1 sequence (P35225 33-146, form in doubt): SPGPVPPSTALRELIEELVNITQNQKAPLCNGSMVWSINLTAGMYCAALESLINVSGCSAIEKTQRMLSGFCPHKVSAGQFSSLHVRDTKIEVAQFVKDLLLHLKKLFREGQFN
# protocol.summary: SPR (Biacore 3000), half-antibody from E. coli periplasmic extract captured by Fab Binder, human IL-13 as analyte, 25 C
endpoint: koff (s⁻¹)
Field: numeric (s⁻¹). Do not append units.

* anti-IL-13 half-antibody framework variant E6Q (heavy chain) (antibody, name in Kabat numbering, V domains shown, Half-antibody) VH: QVTLRQSGPALVKPTQTLTLTCTVSGFSLSAYSVNWIRQPPGKALEWLAMIWGDGKIVYNSALKSRLTISKDTSKNQVVLTMTNMDPVDTATYYCAGDGYYPYAMDNWGQGSLVTVSS VL: DIVMTQSPDSLSVSLGERATINCRASKSVDSYGNSFMHWYQQKPGQPPKLLIYLASNLESGVPDRFSGSGSGTDFTLTISSLQAEDVAVYYCQQNNEDPRTFGGGTKVEIK | 4.26e-05

anti-IL-13 half-antibody WT (antibody, V domains shown, Half-antibody (one heavy and one light chain, knobs-into-holes Fc); Expressed in the E. coli periplasm; for SPR captured from periplasmic extract; also called anti-IL-13 WT; Half-Ab) VH: QVTLRESGPALVKPTQTLTLTCTVSGFSLSAYSVNWIRQPPGKALEWLAMIWGDGKIVYNSALKSRLTISKDTSKNQVVLTMTNMDPVDTATYYCAGDGYYPYAMDNWGQGSLVTVSS VL: DIVMTQSPDSLSVSLGERATINCRASKSVDSYGNSFMHWYQQKPGQPPKLLIYLASNLESGVPDRFSGSGSGTDFTLTISSLQAEDVAVYYCQQNNEDPRTFGGGTKVEIK yielded koff of 5.09e-05

anti-IL-13 half-antibody framework variant F27L (heavy chain) (antibody, name in Kabat numbering, V domains shown, Half-antibody) VH: QVTLRESGPALVKPTQTLTLTCTVSGLSLSAYSVNWIRQPPGKALEWLAMIWGDGKIVYNSALKSRLTISKDTSKNQVVLTMTNMDPVDTATYYCAGDGYYPYAMDNWGQGSLVTVSS VL: DIVMTQSPDSLSVSLGERATINCRASKSVDSYGNSFMHWYQQKPGQPPKLLIYLASNLESGVPDRFSGSGSGTDFTLTISSLQAEDVAVYYCQQNNEDPRTFGGGTKVEIK yielded koff of 4.43e-05
